meta.source: patent US20240409645A1

experimental system: T1, human common cytokine receptor γ-chain (IL-2Rγ) (human, UniProt P31785 23-262, limits assumed)
T1 construct: Recombinant human IL-2Rγ protein, coated (ELISA) or amine-coupled to a CM5 chip (SPR); also called hu IL-2R; CD132
T1 sequence: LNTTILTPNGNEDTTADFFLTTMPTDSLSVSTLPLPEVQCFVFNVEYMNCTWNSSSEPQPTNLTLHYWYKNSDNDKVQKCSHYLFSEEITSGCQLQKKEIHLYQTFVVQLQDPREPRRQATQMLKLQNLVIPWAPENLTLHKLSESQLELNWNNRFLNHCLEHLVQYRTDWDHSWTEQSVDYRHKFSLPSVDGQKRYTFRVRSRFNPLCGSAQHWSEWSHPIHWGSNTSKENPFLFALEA
assay explanation: P.E. off-rate SPR

binder	koff, s⁻¹
FJ1427_P035MP07A03 (VHH, tested as periplasmic extract; also called Clone nr) VHH: EVQLVESGGGLVQAGGSLRLSCAASGRTLSRYAMGWFRQAPGKEREYVAIDSWGGDTFYADSVEGRFTFSRDNAKNEVYLQMNSLQPEDTAVYYCAGAPTSFATTAYSSSNSYRYWGQGTQVTVSS	0.00174
FJ1427_P035MP07C06 (VHH, tested as periplasmic extract; also called Clone nr) VHH: QVQLVESGGGLVQAGGSLRLSCAASGRTLSRYAMGWFRQAPGKEREFVTANSWGGDTYYADSVQGRFTFSRDNAENTVYLQMNSLQPEDTAVYYCAAAPTSFATTAYSSSNSYAYWGQGTQVTVSS	0.00279
FJ1427_P035MP07E01 (VHH, tested as periplasmic extract; also called Clone nr) VHH: QVQLQESGGGLVQAGGSLRLSCAASGRTLSRYAMGWFRQAPGKEREFVACDSWGGDTFYADSVEGRFTFSRDNAKNATYLQMNSLQPEDTAVYYCAGAPTSFATTAYSSSNSYTVWGQGTQVTVSL	0.00156
FJ1427_P035MP07C08 (VHH, tested as periplasmic extract; also called Clone nr; 635) VHH: QVQLVESGGGLVQAGGSLRLSCAASGRTLSRYAMGWFRQAPGKEREFVTANSWGGDTYYADSVQGRFTFSRDNAKNTVYLQMNSLQPEDTAVYYCAAAPTSFATTAYSSSNSYAYWGQGTQVTVSS	0.00259
